- tested-system: T1, human α4β7 integrin on cells (human, UniProt P13612 34-1032; P26010 20-798)
- T1 construct: whole, on cells; also called α4β7 cell (Hu); RPMI8866 cells
- procedure-details: RPMI8866 cell adhesion to MAdCAM-1
pIC50: −log10 of the molar value. Bridge positions count the residues as written; N and C are the ends. Square brackets hold non-standard residues; d marks the D form. * marks the point of attachment. Phe(4-COOH) = N[C@@H](Cc1ccc(C(=O)O)cc1)C(=O)O; Phe(4-tBu) = CC(C)(C)c1ccc(C[C@H](N)C(=O)O)cc1; Oleoyl = CCCCCCCC/C=C\CCCCCCCC(=O)*; NMeR = CN[C@@H](CCCNC(=N)N)C(=O)O; β3hE = N[C@@H](CCC(=O)O)CC(=O)O; Pen = CC(C)(S)[C@H](N)C(=O)O; Hexanoyl = CCCCCC(=O)*

- binder: "Hexanoyl-[Pen][NMeR]SDTL[Pen][Phe(4-tBu)][β3hE][dK]-NH2 (disulfide 1-7) [SEQ ID NO: 176]"
  pIC50: "< 7.30"
- binder: "Oleoyl-[Pen][NMeR]SDTL[Pen][Phe(4-tBu)][β3hE][dK]-NH2 (disulfide 1-7) [SEQ ID NO: 180]"
  pIC50: "< 6.00"
- binder: "Ac-[Pen][NMeR]SQIQ[Pen][Phe(4-tBu)][β3hE][dK]-NH2 (disulfide 1-7; also: homodimer via DIG linker on D-Lys10 side chains) [SEQ ID NO: 189]"
  pIC50: "< 5.00"
- binder: "Ac-[Pen][NMeR]SDTL[Pen][Phe(4-COOH)][dE][dK]-NH2 (disulfide 1-7; not fully specified (residue 10); printed as (Ac Pen N-Me-R S D T L Pen F(4-COOH) e k NH2)2 DIG; also: homodimer: two subunits joined by DIG linker) [SEQ ID NO: 100]"
  pIC50: "≥ 8.00"

The values you see were collected from patent US20220162261A1.
